Molecular target: myeloperoxidase (MPO) (Homo sapiens (Human), UniProt P05164)
Sequence (P05164 49-745): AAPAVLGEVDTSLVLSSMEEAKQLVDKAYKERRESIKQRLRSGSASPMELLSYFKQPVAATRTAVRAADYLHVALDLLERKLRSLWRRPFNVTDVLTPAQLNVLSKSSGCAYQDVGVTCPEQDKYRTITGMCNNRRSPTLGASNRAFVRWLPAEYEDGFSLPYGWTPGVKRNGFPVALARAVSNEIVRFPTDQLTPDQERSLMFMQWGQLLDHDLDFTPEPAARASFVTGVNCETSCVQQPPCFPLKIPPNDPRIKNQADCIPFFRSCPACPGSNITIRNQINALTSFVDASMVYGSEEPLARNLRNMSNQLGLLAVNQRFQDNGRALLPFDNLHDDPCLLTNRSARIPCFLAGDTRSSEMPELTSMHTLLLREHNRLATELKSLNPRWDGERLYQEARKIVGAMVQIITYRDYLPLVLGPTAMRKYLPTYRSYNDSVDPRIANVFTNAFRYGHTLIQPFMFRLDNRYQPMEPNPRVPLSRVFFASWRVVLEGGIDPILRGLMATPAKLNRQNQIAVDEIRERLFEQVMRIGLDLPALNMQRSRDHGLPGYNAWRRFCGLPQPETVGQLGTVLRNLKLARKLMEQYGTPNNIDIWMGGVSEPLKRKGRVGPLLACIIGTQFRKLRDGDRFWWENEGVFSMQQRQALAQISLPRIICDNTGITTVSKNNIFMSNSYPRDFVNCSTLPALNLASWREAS
Test: MPO chlorination assay (APF assay)
Assay type: biochemical
Settings: potency range class
Consider the following molecules; for each one, report its IC50.

{"molecule": "Nc1cc(Cc2cnn(Cc3ccc(CO)cc3)c2)c2nn[nH]c2n1", "IC50": "101 to 999 nM"}

Working through the 3 molecules below one at a time, give IC50 for each.
1. Nc1cc(Cc2cnn(Cc3ccc4c(c3)OCCO4)c2)c2nn[nH]c2n1
2. Nc1cc(Cc2cnn(Cc3ccccc3Oc3ccccc3)c2)c2nn[nH]c2n1
3. Nc1cc(Cc2cnn(Cc3cccc(O[C@H]4CCNC4)c3)c2)c2nn[nH]c2n1

1. 101 to 999 nM
2. 101 to 999 nM
3. 1 to 100 nM

* * *

Target: UniProtKB P05164
Experiment: MPO chlorination assay (APF assay)
Assay type: biochemical
Conditions: potency range class
pIC50: −log10 of the molar value.
Consider the following molecules; for each one, report its pIC50.

{"molecule": "Nc1cc(Cc2cnn(Cc3ccc4c(c3)NCCC4)c2)c2nn[nH]c2n1", "pIC50": "7.00 to 9.00"}
{"molecule": "CN(C)CCN(C)C(=O)c1ccc(Cn2cc(Cc3cc(N)nc4[nH]nnc34)cn2)cc1", "pIC50": "6.00 to 7.00"}
{"molecule": "CNc1nc2ccc(Cn3cc(Cc4cc(N)nc5[nH]nnc45)cn3)cc2s1", "pIC50": "6.00 to 7.00"}
{"molecule": "Nc1cc(Cc2cnn(Cc3ccc4c(c3)C(C(F)(F)F)NCC4)c2)c2nn[nH]c2n1 (centres unmarked)", "pIC50": "6.00 to 7.00"}
{"molecule": "Nc1cc(Cc2cnn(Cc3cccc(CN4CCOCC4)c3)c2)c2nn[nH]c2n1", "pIC50": "6.00 to 7.00"}
{"molecule": "Nc1cc(Cc2cnn(Cc3cccc(OC[C@H]4CCCN4)c3)c2)c2nn[nH]c2n1", "pIC50": "7.00 to 9.00"}
{"molecule": "Nc1cc(Cc2cnn(Cc3ccc(CNC4CC4)cc3)c2)c2nn[nH]c2n1", "pIC50": "6.00 to 7.00"}

Sample COC(=O)CNCc1cccc(Oc2cccc(Cn3cc(Cc4cc(N)nc5[nH]nnc45)cn3)c2)c1 — what was its pIC50?
6.00 to 7.00

* * *

Consider the following molecules; for each one, report its pIC50.
Target: myeloperoxidase (MPO) (Homo sapiens (Human), UniProt P05164)
Assay: MPO peroxidation assay (Amplex Red assay)
Format: biochemical
Conditions: potency range class
Procedure: MPO Peroxidation Assay (Amplex Red Assay) MPO peroxidation activity was measured in 100 mM KPi (pH 7.4) by utilizing the non-fluorescent reagent Amplex Red (Invitrogen Cat. #A12222) which can be oxidized to the highly fluorescent resorufin. Amplex Red is oxidized by the peroxidase action of MPO to resorufin. […] Kinetic determinations were carried out immediately on a Perkin Elmer Envision (15 minute kinetic read, Ex: 535 nm, Em: 590 nm). […]
pIC50: −log10 of the molar value.

Example results:
{"molecule": "Nc1cc(Cc2cnn(Cc3ccccc3Cl)c2)c2nn[nH]c2n1", "observed.property": "pIC50", "reported": "7.00 to 9.00"}
{"molecule": "CN(C)C(=O)[C@@H]1C[C@@H](Oc2cccc(Cn3cc(Cc4cc(N)nc5[nH]nnc45)cn3)c2)CN1", "observed.property": "pIC50", "reported": "6.00 to 7.00"}
{"molecule": "Nc1cc(Cc2cnn(Cc3ccc4c(c3)CCC[C@H]4N)c2)c2nn[nH]c2n1", "observed.property": "pIC50", "reported": "7.00 to 9.00"}
{"molecule": "Nc1cc(Cc2cnn(Cc3ccc4c(c3)C(=O)NCC4)c2)c2nn[nH]c2n1", "observed.property": "pIC50", "reported": "7.00 to 9.00"}

Working through the 2 molecules below one at a time, give pIC50 for each.
1. Nc1cc(Cc2cnn(Cc3cccc(-c4c[nH]cn4)c3)c2)c2nn[nH]c2n1
2. Nc1cc(Cc2cnn(Cc3cccc(-n4cncn4)c3)c2)c2nn[nH]c2n1

["7.00 to 9.00", "7.00 to 9.00"]

* * *

Consider the following molecules; for each one, report its IC50.
Molecular target: UniProtKB P05164
Assay: MPO peroxidation assay (Amplex Red assay)
Format: biochemical
Conditions: potency range class

{"molecule": "Nc1cc(Cc2cnn(Cc3cccc(N4C[C@@H]5C[C@H]4CN5)c3)c2)c2nn[nH]c2n1", "test.system": "UniProtKB P05164", "IC50": "101 to 999 nM"}

Working through the 4 molecules below one at a time, give IC50 for each.
1. Nc1cc(Cc2cnn(CC3CCN(Cc4ccccc4)C3)c2)c2nn[nH]c2n1 (stereo not drawn)
2. N#Cc1ccc(Cn2cc(Cc3cc(N)nc4[nH]nnc34)cn2)cc1
3. Nc1cc(Cc2cnn(-c3cncc(F)c3)c2)c2nn[nH]c2n1
4. Nc1cc(Cc2cnc(-c3ccc(F)cc3)s2)c2nn[nH]c2n1

["1 to 100 nM", "1 to 100 nM", "101 to 999 nM", "101 to 999 nM"]

* * *

Consider the following compounds; for each one, report its IC50.
Target: myeloperoxidase (MPO) (Homo sapiens (Human))
Experiment: MPO chlorination assay (APF assay)
Assay type: biochemical
Conditions: potency range class
Protocol: [formula] where A=minimal Y value (activity level of inhibited sample), B=maximal Y value (activity level of uninhibited sample), C=Log IC50, D=Hill Slope, x=concentration of inhibitor. MPO Chlorination Assay (APF Assay) MPO chlorination activity was measured in 100 mM KPi (pH 7.4) by utilizing the non-fluorescent reagent Aminophenyl fluorescein (APF, Invitrogen Cat. #A36003). APF is cleaved by (—OCl) to yield the fluorescent compound fluorescein. […]

{"compound": "Nc1cc(Cc2cn(Cc3cccc(C4CCNCC4)c3)nc2C(F)F)c2nn[nH]c2n1 [Example 286]", "test.system": "myeloperoxidase (MPO) (Homo sapiens (Human))", "IC50": "101 to 999 nM"}
{"compound": "Nc1cc(Cc2cnn(Cc3ccc(OC(F)F)cc3)c2)c2nn[nH]c2n1 [Example 104]", "test.system": "myeloperoxidase (MPO) (Homo sapiens (Human))", "IC50": "101 to 999 nM"}
{"compound": "Nc1cc(Cc2cnn(Cc3cccc(Oc4ccccc4)c3)c2)c2nn[nH]c2n1 [Example 106]", "test.system": "myeloperoxidase (MPO) (Homo sapiens (Human))", "IC50": "1 to 100 nM"}

Sample Nc1cc(Cc2cnn(Cc3ccc(Cn4cccn4)cc3)c2)c2nn[nH]c2n1 [Example 109] — what was its IC50?
101 to 999 nM

* * *

Biological target: myeloperoxidase (MPO) (Homo sapiens (Human))
Assay: MPO chlorination assay (APF assay)
Assay type: biochemical
Conditions: potency range class
pIC50: −log10 of the molar value.
observed.property: pIC50

{"molecule": "Nc1cc(Cc2cnn(Cc3cccc([C@H]4CNC(Cc5ccccc5)C4)c3)c2)c2nn[nH]c2n1 (some centres unmarked) [Example 203]", "reported": "7.00 to 9.00"}
{"molecule": "CN1CCN(CC(=O)NCc2ccc(Cn3cc(Cc4cc(N)nc5[nH]nnc45)cn3)cc2)CC1 [Example 252]", "reported": "6.00 to 7.00"}
{"molecule": "Nc1cc(Cc2cnn(Cc3cc([C@@H]4CCNC4)ccc3OC(F)F)c2)c2nn[nH]c2n1 [Example 200]", "reported": "7.00 to 9.00"}

Working through the 6 molecules below one at a time, give pIC50 for each.
1. Nc1cc(Cc2cnn(Cc3cccc(OCc4ccccc4)c3)c2)c2nn[nH]c2n1 [Example 99]
2. Nc1cc(Cc2cnn(Cc3ccc(C(=O)NCCN4CCOCC4)cc3)c2)c2nn[nH]c2n1 [Example 75]
3. Nc1cc(Cc2cnn(Cc3ccc(-c4ccccc4)cc3)c2)c2nn[nH]c2n1 [Example 39]
4. Nc1cc(Cn2nc3cccc(Cl)c3n2)c2nn[nH]c2n1 [Example 164]
5. CN(C)C(=O)[C@@H]1C[C@@H](Oc2cccc(Cn3cc(Cc4cc(N)nc5[nH]nnc45)cn3)c2)CN1 [Example 247]
6. Nc1cc(Cc2cnn(Cc3ccc(Cl)cc3)c2)c2nn[nH]c2n1 [Example 45]

1: 7.00 to 9.00; 2: 6.00 to 7.00; 3: 6.00 to 7.00; 4: 5.00 to 6.00; 5: 6.00 to 7.00; 6: 7.00 to 9.00

* * *

Target: myeloperoxidase (MPO) (Homo sapiens (Human))
Assay: MPO chlorination assay (APF assay)
Format: biochemical
Conditions: potency range class
Consider the following compounds; for each one, report its IC50.

Example results:
{"compound": "Nc1cc(Cc2cnn(C3CCCC3)c2)c2nn[nH]c2n1", "test.system": "myeloperoxidase (MPO) (Homo sapiens (Human))", "IC50": "0.001 to 0.1 µM"}
{"compound": "Nc1cc(Cc2cnn(Cc3ccc4c(c3)CC[C@H]4N)c2)c2nn[nH]c2n1", "test.system": "myeloperoxidase (MPO) (Homo sapiens (Human))", "IC50": "0.001 to 0.1 µM"}
{"compound": "Nc1cc(Cc2cnn(Cc3cn(-c4ccccc4)nn3)c2)c2nn[nH]c2n1", "test.system": "myeloperoxidase (MPO) (Homo sapiens (Human))", "IC50": "0.101 to 0.999 µM"}
{"compound": "Nc1cc(Cc2cnn(Cc3cccc(OC(F)F)c3)c2)c2nn[nH]c2n1", "test.system": "myeloperoxidase (MPO) (Homo sapiens (Human))", "IC50": "0.001 to 0.1 µM"}
{"compound": "Cc1[nH]c(-c2ccccc2)nc1-c1cccc(Cn2cc(Cc3cc(N)nc4[nH]nnc34)cn2)c1", "test.system": "myeloperoxidase (MPO) (Homo sapiens (Human))", "IC50": "0.101 to 0.999 µM"}

Working through the 6 compounds below one at a time, give IC50 for each.
1. Nc1cc(Cc2cnn(Cc3cccc(O[C@@H]4CCNC4)c3)c2)c2nn[nH]c2n1
2. Nc1cc(Cc2cnn(Cc3ccc(C(F)(F)F)cc3)c2)c2nn[nH]c2n1
3. Nc1cc(Cn2nnc3ccc(Cc4ccccc4)cc32)c2nn[nH]c2n1
4. Nc1cc(Cc2cnn(Cc3ccc4c(c3)CCC[C@@H]4N)c2)c2nn[nH]c2n1
5. Nc1cc(Cc2cnn(Cc3cccc(-n4cncn4)c3)c2)c2nn[nH]c2n1
6. Cn1ccc(-c2cccc(Cn3cc(Cc4cc(N)nc5[nH]nnc45)cn3)c2)n1

0.001 to 0.1 µM
0.101 to 0.999 µM
0.101 to 0.999 µM
0.001 to 0.1 µM
0.101 to 0.999 µM
0.001 to 0.1 µM

Working through the 6 compounds below one at a time, give IC50 for each.
1. Nc1cc(Cc2cnn(Cc3cccc(-c4ccccc4)n3)c2)c2nn[nH]c2n1
2. Nc1cc(Cc2cnn(CCc3ccccc3)c2)c2nn[nH]c2n1
3. Nc1cc(Cc2cn(Cc3ccccc3)nc2C(F)(F)F)c2nn[nH]c2n1
4. Nc1cc(Cc2cnn(C(CO)c3ccccc3)c2)c2nn[nH]c2n1 (stereo not drawn)
5. Nc1cc(Cc2cnn(Cc3cccc(Cc4ccccc4)c3)c2)c2nn[nH]c2n1
6. Nc1cc(Cc2cnn(Cc3cccc(C4CCNC4)c3)c2)c2nn[nH]c2n1 (stereo in doubt) [Example 191]

1. 0.001 to 0.1 µM
2. 0.001 to 0.1 µM
3. 0.101 to 0.999 µM
4. 0.101 to 0.999 µM
5. 0.001 to 0.1 µM
6. 0.001 to 0.1 µM

Sample Nc1cc(Cc2cnn(Cc3cc([C@@H]4CC(=O)NC4CO)cc(C(F)(F)F)c3)c2)c2nn[nH]c2n1 (stereo partly drawn) — what was its IC50?
0.001 to 0.1 µM
